test: NCI Yeast Anticancer Drug Screen. Data for the mlh1 rad18 strain (AID 175); conditions: S. cerevisiae mlh1 rad18 strain growth inhibition; at 50.0 µM (retest, dose inferred, filed as 5.0); hits give high values
Compounds without any hit were thinned out: in the full panel of roughly 79,000, 15% have a hit.
Metric name: growth inhibition (%)
Give a bare numeral; the unit % is implied.

[
  {
    "Compound": "NC(=O)SCC(=O)NNc1ccccc1",
    "Unit name": "%",
    "growth inhibition": 81
  },
  {
    "Compound": "O=C(O)C#CC(=O)O",
    "Unit name": "%",
    "growth inhibition": 60
  },
  {
    "Compound": "CCC1CCCC(=O)C1 (stereo unspecified)",
    "Unit name": "%",
    "growth inhibition": 0
  },
  {
    "Compound": "N#CCCC(CCC#N)(CCC#N)C(=O)c1ccccc1",
    "Unit name": "%",
    "growth inhibition": 12
  },
  {
    "Compound": "COc1ccc2nc3cc(Cl)ccc3c(NCCCNCc3cc(OC)c(OC)c(OC)c3)c2c1",
    "Unit name": "%",
    "growth inhibition": 92
  },
  {
    "Compound": "c1ccc(C(c2ccccc2)n2ccnc2)cc1",
    "Unit name": "%",
    "growth inhibition": 1
  }
]

Q: Dear colleague, I am looking for the recorded growth inhibition of the following compound: `C#CC(C)(C)OC(=O)Nc1ccccc1`
A: 80

Q: And then `COC(=O)C#CC(=O)OC` , what is it?
A: 98

Q: And then `[N-]=[N+]=NC(=O)Nc1cccc(C(F)(F)F)c1` , what is it?
A: 98

Q: And then `Cn1c2ccccc2c(=O)c2ccccc21` , what is it?
A: 20

Q: And then `O=C1COC(=O)/C1=C/c1ccc2c(c1)OCO2` , what is it?
A: 81

Q: And then `CC(=O)Nc1ccc(S(=O)(=O)N(CCO)CCO)cc1` , what is it?
A: -9

Q: And then CC1(O)Cc2c(O)c3c(c(O)c2CC1O)C(=O)C=CC3=O (stereo unspecified) , what is it?
A: 70

Q: And then COc1nc(NC2OC(CO)C(O)C(O)C2O)c(Cl)c(=O)n1C (stereo unspecified) , what is it?
A: -3

Q: And then `NS(=O)(=O)c1ccc(Nc2c3ccccc3nc3c(C(=O)N4CCN(CCO)CC4)cccc23)cc1` , what is it?
A: 30

Q: And then `CNC(=O)OCCN1c2ccccc2Sc2ccccc21` , what is it?
A: 92

Q: And then `Clc1nc2nc(Cl)c(Cl)n2nc1Cl` , what is it?
A: -4

Q: And then `C[N+]1(C)CCC(c2ccccc2)(c2ccccc2)C(=O)C1` , what is it?
A: -14

Q: And then CC1CC[P+](c2ccccc2)(c2ccccc2)c2c1ccc1ccccc21 (stereo unspecified) , what is it?
A: 97

Q: And then `O=C(N/C=C/C=C/Sc1ccccc1)OCc1ccccc1` , what is it?
A: 98

Q: And then `O=[N+]([O-])c1ccc(N/N=C/CC(O)(C(F)(F)F)C(F)(F)F)c([N+](=O)[O-])c1` , what is it?
A: 98

Q: And then Nc1nc(=S)c2ncn(C3OC(CO)C(O)C3O)c2[nH]1 (stereo unspecified) , what is it?
A: 52
